test system: NCI-H358; assay: Antiproliferative activity against human NCI-H358; format: functional, cell-based
pEC50: −log10 of the molar value.
OBSERVATION_TYPE: pEC50

MOL: C=CC(=O)N1CCN(c2nc(=O)n(-c3c(C)ccnc3C(C)C)c3nc(-c4c(O)cccc4F)c(F)cc23)[C@@H](C)C1
OBSERVATION_TYPE: pEC50
MEASURED: 8.22

###

Quick record of IC50 values for SOS1-KRAS (Homo sapiens, UniProt P01116, G12C).

MOL: C=CC(=O)Nc1ccc(-c2noc([C@@]3(C)CCCc4sc(N)c(C#N)c43)n2)cc1
IC50: > 10 µM
//
MOL: C=CC(=O)Nc1cccc(-c2noc([C@@]3(C)CCCc4sc(N)c(C#N)c43)n2)c1
IC50: > 10 µM
//
MOL: C=CC(=O)N1CCN(c2cccc(-c3noc([C@@]4(C)CCCc5sc(N)c(C#N)c54)n3)c2)CC1
IC50: 3.29 µM
